tested-on: T1, recombinant SARS-CoV-2 Spike RBD domain, Delta variant (SARS-CoV-2)
T1 construct: also called RBD Delta variant
procedure-details: competition ELISA, blocking of RBD binding to ACE2 ectodomain
This section presents binders with their documented Blocking % values.
reported-endpoint: Blocking % (%)

[[record]]
binder = "SPK002M B1 antibody (antibody, human IgG1, kappa, V domains shown) VH: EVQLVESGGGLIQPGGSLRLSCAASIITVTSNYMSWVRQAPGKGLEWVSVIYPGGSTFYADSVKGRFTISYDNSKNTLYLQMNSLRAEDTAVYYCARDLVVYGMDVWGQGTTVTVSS VL: EIVLTQSPGTLSLSPGERATLSCRASQSVSDSYLAWYQQKPGQAPRLLIYGASSRATGIPGRFSGSGSGTDFTLTISRLEPEDFAIYYCQYGVTFGGGTKVEIKR"
unit_spec = "%"
endpoint_result = 91

[[record]]
binder = "SPK002M A2 antibody (antibody, human IgG1, kappa, V domains shown) VH: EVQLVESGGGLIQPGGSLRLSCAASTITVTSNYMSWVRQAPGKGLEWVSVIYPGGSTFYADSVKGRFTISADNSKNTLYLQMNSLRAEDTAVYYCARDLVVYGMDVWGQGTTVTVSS VL: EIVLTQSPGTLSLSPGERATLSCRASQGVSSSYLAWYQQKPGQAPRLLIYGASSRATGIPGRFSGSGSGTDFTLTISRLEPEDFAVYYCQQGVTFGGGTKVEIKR"
unit_spec = "%"
endpoint_result = 95

[[record]]
binder = "SPK002M C1 antibody (antibody, human IgG1, kappa, V domains shown) VH: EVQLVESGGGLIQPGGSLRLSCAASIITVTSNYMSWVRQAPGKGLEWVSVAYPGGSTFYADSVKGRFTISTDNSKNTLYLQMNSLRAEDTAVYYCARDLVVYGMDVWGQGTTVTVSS VL: EIVLTQSPGTLSLSPGERATLSCRASQSVSDSYLAWYQQKPGQAPRLLIYGASSRATGIPGRFSGSGSGTDFTLTISRLEPEDFAVYYCQYGVTFGGGTKVEIKR"
unit_spec = "%"
endpoint_result = 94

[[record]]
binder = "SPK002M A5 antibody (antibody, human IgG1, kappa, V domains shown) VH: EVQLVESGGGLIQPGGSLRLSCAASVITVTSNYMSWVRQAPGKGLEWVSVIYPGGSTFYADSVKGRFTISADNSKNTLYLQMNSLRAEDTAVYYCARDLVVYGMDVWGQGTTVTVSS VL: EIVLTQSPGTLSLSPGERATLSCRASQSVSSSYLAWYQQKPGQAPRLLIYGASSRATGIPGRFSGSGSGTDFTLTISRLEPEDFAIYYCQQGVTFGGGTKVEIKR"
unit_spec = "%"
endpoint_result = 93

[[record]]
binder = "SPK002M A1 antibody (antibody, human IgG1, kappa, V domains shown) VH: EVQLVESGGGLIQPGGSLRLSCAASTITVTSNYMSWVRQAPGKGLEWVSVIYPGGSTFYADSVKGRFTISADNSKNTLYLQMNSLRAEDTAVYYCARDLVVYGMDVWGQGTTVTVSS VL: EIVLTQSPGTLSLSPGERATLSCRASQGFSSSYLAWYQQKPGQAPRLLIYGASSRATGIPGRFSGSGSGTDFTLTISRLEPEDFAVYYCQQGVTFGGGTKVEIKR"
unit_spec = "%"
endpoint_result = 94

[[record]]
binder = "SPK002M A4 antibody (antibody, human IgG1, kappa, V domains shown) VH: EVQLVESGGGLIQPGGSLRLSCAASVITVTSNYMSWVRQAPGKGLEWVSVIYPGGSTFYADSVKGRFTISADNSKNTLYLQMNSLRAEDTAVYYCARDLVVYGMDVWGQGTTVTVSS VL: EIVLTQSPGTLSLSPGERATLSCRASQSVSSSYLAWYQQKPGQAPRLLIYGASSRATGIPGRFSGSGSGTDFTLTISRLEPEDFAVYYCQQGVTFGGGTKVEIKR"
unit_spec = "%"
endpoint_result = 93

